Data provenance: PubChem BioAssay (NCI)

- Assay Details: NCI Yeast Anticancer Drug Screen. Data for the sgs1 mgt1 strain (AID 161);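 note: 0% = growth of cultures given vehicle only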
- Test Parameters: S. cerevisiae sgs1 mgt1 strain, at 50.0 µM, stronger effect = higher value
Compounds without any hit were thinned out: in the full panel of roughly 79,000, 15% have a hit. Calls of active or inactive are those of the source. Cut-off read from the data, not from the text of the source: active = growth inhibition above about 70%; inactive = the rest.

>  <Compound>
CCOC(=O)OC1CC2CC(OC(=O)OCC)c3cccc(Br)c3C2c2ccccc21 (stereo not given)

>  <growth inhibition>
18.8% (inactive)

$$$$
>  <Compound>
c1ccc(CCN2CCN(CCc3ccccn3)CC2)nc1

>  <growth inhibition>
-6.95% (inactive)

$$$$
>  <Compound>
CC(C)CNC(=O)Nc1ccccc1C(F)(F)F

>  <growth inhibition>
-23.6% (inactive)

$$$$
>  <Compound>
CC(C)OP(=O)(c1ccccc1)c1ccc2c(c1)OCCOCCOCCOCCO2 (stereo not given)

>  <growth inhibition>
0.75% (inactive)

$$$$
>  <Compound>
Cc1c(C)c(C)c(CN2CC(=O)c3ccccc3C2=O)c(C)c1C

>  <growth inhibition>
4% (inactive)

$$$$
>  <Compound>
O=c1c2ccccc2c2ccccc2n1C(c1ccccc1)c1ccccc1

>  <growth inhibition>
3.25% (inactive)

$$$$
>  <Compound>
CC(C(O)c1ccc(Cl)cc1)C(O)(C(F)(F)F)C(F)(F)F (stereo not given)

>  <growth inhibition>
99.2% (active)

$$$$
>  <Compound>
CC12CCC(=O)[C@@]1(C)CCCC2O (stereo not given in full)

>  <growth inhibition>
-12.8% (inactive)

$$$$
>  <Compound>
C/C(=N\NC(=O)c1ccncc1)c1ccccc1Cl

>  <growth inhibition>
-16.1% (inactive)

$$$$
>  <Compound>
Nc1ccc(Nc2ccc([N+](=O)[O-])cc2S(=O)(=O)O)cc1

>  <growth inhibition>
-17% (inactive)

$$$$
>  <Compound>
CC(=O)OC(C(=O)Nc1ncccn1)c1ccccc1 (stereo not given)

>  <growth inhibition>
-5.65% (inactive)

$$$$
>  <Compound>
CNC(=O)NC1CCC(C)CC1 (stereo not given)

>  <growth inhibition>
1.5% (inactive)

$$$$
>  <Compound>
Cc1cc(Br)c(I)c([N+](=O)[O-])c1

>  <growth inhibition>
17.8% (inactive)

$$$$
>  <Compound>
O=C(O)/C(Cc1ccnc2ccccc12)=N\O

>  <growth inhibition>
-15.4% (inactive)

$$$$
>  <Compound>
OCCc1c[nH]c2ccccc12

>  <growth inhibition>
10.5% (inactive)

$$$$
>  <Compound>
CCC(=O)c1cc(-c2cc(C(=O)CC)[nH]n2)n[nH]1

>  <growth inhibition>
-5.7% (inactive)

$$$$
>  <Compound>
CN(C)CCCNC(=O)c1cc(NC(=O)c2cc(NC(=O)c3cc(NC(=O)CCCn4ccc(CO)c4CO)cn3C)cn2C)cn1C

>  <growth inhibition>
-5.35% (inactive)

$$$$
>  <Compound>
O=C(Cl)C1CC=C2c3ccccc3CCC2C1C(=O)Cl (stereo not given)

>  <growth inhibition>
8.1% (inactive)

$$$$
>  <Compound>
CCCCSc1nc2c([nH]1)c(=O)n(C)c(=O)n2C

>  <growth inhibition>
4.3% (inactive)

$$$$
>  <Compound>
Cc1nc(Nc2ccc([N+](=O)[O-])cc2)sc1C(=O)/C=C/c1ccc(N(C)C)cc1

>  <growth inhibition>
5.6% (inactive)

$$$$
>  <Compound>
N#CCCOCC(OCCC#N)C(OCCC#N)C(OCCC#N)C(COCCC#N)OCCC#N (stereo not given)

>  <growth inhibition>
-13.2% (inactive)

$$$$
>  <Compound>
CCC(C)NC(=O)c1ccccc1 (stereo not given)

>  <growth inhibition>
7.8% (inactive)

$$$$
>  <Compound>
NC(=O)c1ccccc1NC(=O)C(=O)C(C(=O)c1ccc2ccccc2c1)C1OC(=O)c2ccccc21 (stereo not given)

>  <growth inhibition>
10.6% (inactive)

$$$$
>  <Compound>
Nc1c[nH]c(=S)s1

>  <growth inhibition>
54.7% (inactive)

$$$$
>  <Compound>
CSc1nc(=O)n(CCC#N)nc1SC

>  <growth inhibition>
34.9% (inactive)

$$$$
